Entries and their CPE inhibition values follow.
Test: inhibition of RSV-induced cytopathic effect – HEp-2 cells, primary 10 µM value included (AID 2391)
Details: at 10 µM, hits give high values
The campaign covered roughly 310,000 compounds. About 410 (0.13%) were called active. Not shown: some 2% with an inconclusive outcome. A selection follows. Results with a measured potency or affinity are listed apart.
Readout kind: CPE inhibition (%)

Compound: O=c1cc(-c2ccc(O)cc2)oc2c(C3O[C@H](CO)[C@@H](O)[C@H](O)[C@H]3O)c(O)cc(O)c12 (stereo not given in full)
Readout kind: CPE inhibition
Quantitative readout: -1.94

Compound: Cc1cc(=O)[nH]c(-c2ccccc2O)n1
Readout kind: CPE inhibition
Quantitative readout: 0.17

Compound: COc1ccc2nc(/C=N/NC(=O)[C@H](CCSC)NC(=O)OC(C)(C)C)ccc2c1
Readout kind: CPE inhibition
Quantitative readout: 18.6

Compound: Cc1ccc(NC(=O)C2CCN(S(=O)(=O)c3ccc(F)cc3)CC2)cc1
Readout kind: CPE inhibition
Quantitative readout: -1.19

Compound: CCC(C)[C@H](NC(=O)OC(C)(C)C)C(=O)N/N=C/c1cccc2nccnc12 (stereo not given in full)
Readout kind: CPE inhibition
Quantitative readout: 0.75

Compound: Cn1c(=O)c2[nH]c(-c3ccccc3O)nc2n(C)c1=O
Readout kind: CPE inhibition
Quantitative readout: 9.42

Compound: CC(C)CNC(=O)COC(=O)CNC(=O)c1cc(Cl)cc([N+](=O)[O-])c1
Readout kind: CPE inhibition
Quantitative readout: 1.69

Compound: COc1ccc2nc(/C=N/NC(=O)CCCCCNC(=O)OC(C)(C)C)ccc2c1
Readout kind: CPE inhibition
Quantitative readout: 6.33

Compound: Cc1ccc(S(=O)(=O)N2CCC(C(=O)Nc3ccc(S(=O)(=O)N4CCCC4)cc3)CC2)cc1
Readout kind: CPE inhibition
Quantitative readout: 0.34

Compound: c1csc(-c2nc3ccccc3[nH]2)c1
Readout kind: CPE inhibition
Quantitative readout: 4.14
